Average Fluorescence (n = 3) listing for selected compounds.
Target: human TRPM8 (Homo sapiens)
Sequence (Q7Z2W7 whole entry): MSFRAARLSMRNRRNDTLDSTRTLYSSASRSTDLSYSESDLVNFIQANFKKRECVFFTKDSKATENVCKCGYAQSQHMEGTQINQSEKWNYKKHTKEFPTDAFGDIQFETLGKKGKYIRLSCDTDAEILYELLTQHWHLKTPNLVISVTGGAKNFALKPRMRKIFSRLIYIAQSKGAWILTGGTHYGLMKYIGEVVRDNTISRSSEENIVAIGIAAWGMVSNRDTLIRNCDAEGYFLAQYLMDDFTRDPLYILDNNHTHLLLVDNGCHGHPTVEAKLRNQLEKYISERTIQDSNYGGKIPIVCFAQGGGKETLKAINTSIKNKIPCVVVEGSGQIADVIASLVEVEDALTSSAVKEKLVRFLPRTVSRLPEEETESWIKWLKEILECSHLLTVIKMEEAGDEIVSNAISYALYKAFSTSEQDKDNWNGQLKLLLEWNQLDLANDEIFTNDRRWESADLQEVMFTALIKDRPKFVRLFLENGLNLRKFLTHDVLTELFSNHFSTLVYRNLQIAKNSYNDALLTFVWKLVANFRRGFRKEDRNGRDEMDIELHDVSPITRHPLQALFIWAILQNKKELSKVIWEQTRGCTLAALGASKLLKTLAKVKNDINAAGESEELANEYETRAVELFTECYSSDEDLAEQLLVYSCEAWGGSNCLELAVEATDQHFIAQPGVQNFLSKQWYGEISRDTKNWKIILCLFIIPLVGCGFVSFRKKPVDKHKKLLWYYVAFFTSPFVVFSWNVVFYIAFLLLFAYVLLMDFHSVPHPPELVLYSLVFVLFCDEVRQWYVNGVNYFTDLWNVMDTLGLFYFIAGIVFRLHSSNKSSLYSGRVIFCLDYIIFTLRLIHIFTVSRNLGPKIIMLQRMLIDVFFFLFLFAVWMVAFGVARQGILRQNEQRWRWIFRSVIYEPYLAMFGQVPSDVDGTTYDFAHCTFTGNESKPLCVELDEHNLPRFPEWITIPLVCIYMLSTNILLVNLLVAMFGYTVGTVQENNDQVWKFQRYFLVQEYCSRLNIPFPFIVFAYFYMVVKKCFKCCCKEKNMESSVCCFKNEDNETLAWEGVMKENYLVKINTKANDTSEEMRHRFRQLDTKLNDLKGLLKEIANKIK
Assay: FLIPR intracellular calcium flux (Fluo-4) in HEK cells stably transfected with human TRPM8
Details: pre-treatment with 100 uM test compound for 30 minutes, then 6.25 uM G-180; HEK cells with human TRPM8; Fluo-4
Output spec: single numeric token, no unit.

Guide cases for Average Fluorescence (n = 3), answers given:
[
  {
    "COMPOUND": "O=P([O-])(O)OP(=O)([O-])O.[Na+].[Na+] [Sodium acid pyrophosphate]",
    "Average Fluorescence (n = 3)": 18075.77
  },
  {
    "COMPOUND": "O=P(O)(O)OP(=O)(O)OP(=O)(O)O [Sodium tripolyphosphate]",
    "Average Fluorescence (n = 3)": 18508.43
  },
  {
    "COMPOUND": "O=P(O)(O)O[C@H]1[C@H](OP(=O)(O)O)[C@@H](OP(=O)(O)O)[C@H](OP(=O)(O)O)[C@@H](OP(=O)(O)O)[C@H]1OP(=O)(O)O",
    "Average Fluorescence (n = 3)": 18382.62
  }
]

Q: I am curious: what Average Fluorescence (n = 3) value has been reported for CCCCCCCCCCCCOP(=O)([O-])[O-].[Na+].[Na+] [Sodium lauryl phosphate] ?
A: 18404.83

Q: I am curious: what Average Fluorescence (n = 3) value has been reported for O=P([O-])([O-])OP(=O)([O-])OP(=O)([O-])[O-].[Na+].[Na+].[Na+].[Na+].[Na+] [Penta sodium triphosphate] ?
A: 17628.02
